# MEASUREMENT_PROTOCOL: sensitizers of A549 cells to miR-34 induction, primary screen, imaging, A549 dox-inducible miR-34, nuclei and caspase counts (AID 1347080); also: test concentration not given here
# EXPERIMENTAL_CONDITIONS: A549 miR-34 inducible, Hoechst nuclei count, 48 h; measured here: total cells with miR-34 induction; stronger effect = lower value
Square brackets hold non-standard residues; d marks the D form. Peptide text beside a SMILES is read from it. Orn = NCCC[CH](N)C(=O)O
Binarize cell count at 10000; below is label 1, at or above is label 0.

Task item: Given the entry CCN[C@@H]1C[C@H](N)[C@@H](O[C@H]2OC(CN)=CC[C@H]2N)[C@H](O)[C@H]1OC1OC[C@](C)(O)[C@H](NC)[C@H]1O (stereo partly drawn) , would its reported cell count be below 10000?
Reply: label 1

Task item: Field: below-cutoff. Rule: recorded cell count strictly less than 10000. Subject: O=C1c2ccccc2C(=O)C1c1ccc(Cl)cc1
Reply: label 1

Task item: # TODO verify cell count < 10000 strictly for this compound: COC(=O)/C=C/C(=O)OC
Reply: label 1

Task item: Does CC(C)CC1NC(=O)C(CCCN)NC(=O)C(C(C)C)NC(=O)C2CCCN2C(=O)C(Cc2ccccc2)NC(=O)C(CC(C)C)NC(=O)C(CCCN)NC(=O)C(C(C)C)NC(=O)C2CCCN2C(=O)C(Cc2ccccc2)NC1=O (stereo not drawn) (cyclo(FPV[Orn]LFPV[Orn]L); configuration not given here) have cell count strictly under 10000?
Reply: label 1

Task item: Field: below-cutoff. Rule: recorded cell count strictly less than 10000. Subject: CC(=O)[C@@]1(O)CCC2C3C[C@H](C)C4=CC(=O)C=CC4(C)[C@@]3(F)[C@@H](O)C[C@@]21C (stereo partly drawn)
Reply: label 1

Task item: Dear reviewer, please state whether CO/N=C(/C(=O)NC1C(=O)N2C(C(=O)O)=C(COC(N)=O)CSC12)c1ccco1 (stereo not drawn) has cell count strictly beneath 10000.
Reply: label 0

Task item: For this compound, is cell count lower than 10000? CNC(=O)Oc1ccc2c(c1)[C@]1(C)CCN(C)C1N2C (stereo partly drawn)
Reply: label 0

Task item: Hi there! Is cell count for CO/N=C(/C(=O)N[C@@H]1C(=O)N2C(C(=O)O)=C(CSc3nc(=O)c(O)nn3C)CS[C@H]12)c1csc(N)n1 below 10000, do you know?
Reply: label 0

Task item: For CN[C@@H]1C(OC2[C@H](O[C@H]3[C@H](O)[C@@H](O)[C@H](N=C(N)N)[C@@H](O)[C@@H]3N=C(N)N)OC(C)[C@]2(O)CO)OC(CO)C(O)C1O (stereo partly drawn) , is the recorded cell count below the cut-off of 10000?
Reply: label 0

Task item: Input O=C(O)[C@H]1/C(=C/CO)O[C@@H]2CC(=O)N21 ; condition: cell count strictly below 10000. Does it hold?
Reply: label 0

Task item: API: query returns whether the compound falls strictly under 10000 in cell count. Query: O=C(O)C[C@H](O)C[C@H](O)/C=C/c1c(C2CC2)nc2ccccc2c1-c1ccc(F)cc1
Reply: label 1

Task item: Bench note: check whether Cc1cc2nc3c(=O)[nH]c(=O)nc-3n(CC(O)C(O)C(O)CO)c2cc1C (stereo not drawn) shows cell count below 10000
Reply: label 0

Source listed as PubChem BioAssay.
